- System: ACHN renal
- Protocol Summary: NCI tumour cell line growth inhibition, 48 h
Where a SMILES comes first, the peptide text is derived from it. The star is where a group is joined. Boc = CC(C)(C)OC(=O)*
Test Readout: TGI

Please give the documented TGI of `Cc1ccc(/C=N\NC(=O)c2[nH]c3ccc(F)cc3c2-c2ccccc2)cc1`
> 100 µM

Provide only the value of recorded TGI for `CN1CCN(C(=O)c2cc(-c3ccc4ncnc(N5CCc6cc(F)c(Cl)cc65)c4c3)cnc2N)CC1`
5.78 µM

Given the compound `C[C@]12CC[C@@H]3c4cc(OCC(F)(F)F)c(O)cc4CC[C@H]3[C@@H]1CC[C@@H]2O` , write its reported TGI.
47.1 µM

Specify reported TGI for the compound shown: `C/C(=N\Nc1ccc([N+](=O)[O-])cc1[N+](=O)[O-])c1sc(-n2nc(-c3ccccc3)cc2-c2ccccc2)nc1C`
> 100 µM

Entry `COc1cccc(OC(=O)c2ccc(C(F)(F)F)nc2Nc2cc(Cl)ccc2C)c1` needs its TGI filled in; supply it.
> 100 µM

Retrieve TGI measured for `COc1ccccc1-c1cc(=O)c2cc(C)cnc2[nH]1` and print it.
> 100 µM

Entry `C=C(Br)CNC(=O)Nc1ccc(Cl)c(Cl)c1` needs its TGI filled in; supply it.
55 µM

Please look at this compound and report its TGI: CC(C)(C)OC(=O)NC(Cc1ccc(O)cc1)C(=O)N1CCCC1C(=O)O (stereo not drawn) (Boc-Tyr-Pro-OH; configuration not given here)
> 100 µM

Give the reported TGI for this compound. CCN(CC)CC1c2ccccc2C(CNc2ccccc2)N1C (centres undefined)
> 100 µM

---

- Tested on: MCF7 breast
- Protocol Summary: NCI tumour cell line growth inhibition, 48 h
Would you kindly list TGI for each of these compounds?

Give the reported TGI for this compound. NC(N)=NCCCC(NC(=O)c1cccc2c(=O)c3ccccc3[nH]c12)C(=O)O (configuration not stated)
> 100 µM

Tell us which TGI value is on record for C=CC1(NC(=O)c2ccccc2)CCC(C(C)(C)C)CC1 (configuration not stated)
> 83.5 µM

# return recorded TGI for entry N#CC1C(=O)NC23CCCCC2C1c1ccccc1O3 (configuration not stated)
> 100 µM

Annotate the compound `Cc1ccc(/C=N\NC(=O)c2[nH]c3ccc(F)cc3c2-c2ccccc2)cc1` with its measured TGI.
> 100 µM

Please indicate TGI recorded for `COc1ccc(C(=O)/C=C/c2ccc(O)c(O)c2)c(OC)c1`
14.1 µM

Assign TGI to the following record: CN(C)c1ccc(C(Cc2ccccc2)C2NC(=S)NC2=O)cc1 (configuration not stated)
> 100 µM

Consider the compound CC(=O)Oc1cc2c(cc1OC(C)=O)OCC(c1ccccc1)C2 (configuration not stated) and give its recorded TGI.
66.8 µM

Entry `FC(F)(F)c1ccc(-c2cnc(-c3ncon3)nc2NC2CCCCCC2)cc1` needs its TGI filled in; supply it.
> 100 µM

Indicate the recorded TGI value for this compound: `O=C1C=CC2(C=C1)O[C@H](Cc1ccccc1)[C@@H](Cc1ccccc1)O2`
1.51 µM

# return recorded TGI for input `O=C1c2c(c3c4ccccc4[nH]c3c3ccc4ccccc4c23)C(=O)N1CCN1CCNCC1`
2.42 µM

Give TGI for `Nc1n[n+](CC(=O)c2ccccc2)c2sc(-c3ccccc3)nn12`
> 100 µM

Determine from records and report TGI for `O=C(/C=C/c1cc2ccccc2[nH]c1=O)/C=C/c1cc2ccccc2[nH]c1=O`
> 47.7 µM

State, in one line, measured TGI of O=C1OCC2=C1C(c1ccc(Cl)c(Cl)c1)c1cc3c(cc1N2CCO)OCCO3 (configuration not stated)
> 50 µM

Supply recorded TGI for `COc1cccc(OC(=O)c2ccc(C(F)(F)F)nc2Nc2cc(Cl)ccc2C)c1` here.
> 100 µM

Fill in reported TGI for this entry: `CC(C)(C)OC(=O)N/N=C(/N)Cc1ccc(Cl)cc1`
> 100 µM

Report TGI for `CCOC(=O)C1=C(C)N(c2ccc(Cl)cc2)[C@]2(C#N)C(O)=C(Cl)C(Cl)=C(O)[C@]12C#N`
> 100 µM

Quick one: give measured TGI for `CCCc1c(-c2ccccc2)[nH]c2ccccc2c1=O`
> 100 µM

Fill in TGI for record COc1cc2c(cc1OC)C1C=NC(C2)c2cc(OC)c(OC)cc21 (configuration not stated)
> 100 µM

Please report the measured TGI for COc1cc2c(cc1C1COc3cc4occc4cc3C1=O)OCO2 (configuration not stated)
> 100 µM

State its TGI: `COc1ccc(-c2[nH]c3ccccc3c2-c2ccc(OC)cc2)cc1`
12.4 µM

Using known records, supply TGI for COc1ccc(C2SCC(=O)N2c2ccc(-c3ccc(-n4c(-c5ccccc5)nc5ccccc5c4=O)cc3)cc2)cc1OC (configuration not stated)
> 100 µM

Answer with the recorded TGI of `O=C(/C=C/c1ccccc1)CCN1CCOCC1` only.
24.1 µM

---

Please provide measured TGI for the entries that follow.
- Test system: PC-3 prostate
- Protocol Summary: NCI tumour cell line growth inhibition, 48 h

Give me measured TGI, please, for this compound: `Cc1n[nH]c(=O)n1N1C(=O)CCCC1=O`
> 100 µM

Determine its reported TGI: `COC(=O)[C@H](CCSC)NC(=O)N[C@H](C)c1ccccc1`
> 100 µM

Recall and state the measured TGI for `CC(=O)/C=C/c1cn(C(=O)OC(C)(C)C)c2ccc(Br)cc12` .
> 79.2 µM

// fetch TGI given entry NC(N)=NCCCC(NC(=O)c1cccc2c(=O)c3ccccc3[nH]c12)C(=O)O (stereo unspecified)
> 100 µM

Please give measured TGI of the following entry: `O=c1ssc(=Nc2ccccc2)n1-c1ccccc1`
38.5 µM

Consider the compound CN1C(=O)N(C)C2C1NN=c1s/c(=C\c3ccc(C(F)(F)F)cc3)c(=O)n12 (stereo unspecified) . State its measured TGI.
> 100 µM

---

- Test system: KM12 colon
- Protocol Summary: NCI tumour cell line growth inhibition, 48 h
Test Readout: GI50

GET GI50 | system: KM12 colon | item: O=c1[nH]c(=O)n(C2CC(O)C(COP(=O)(OCc3ccc([N+](=O)[O-])o3)N(CCCCCl)CC(O)CO)O2)cc1F (centres undefined)
1.87 µM

Identify measured GI50 obtained with KM12 colon for CCc1ccc2c(c1)N(CCO)C1=C(C(=O)OC1)C2c1cccc(Br)c1 (centres undefined) .
0.336 µM

# lookup: KM12 colon GI50, key = `COc1cc2c(cc1OCCCn1c(-c3ccccn3)nc3ccccc31)N=C[C@@H]1CCCN1C2=O`
1.9 µM

Provide GI50, system KM12 colon, entry `CNCCCNCCCCNCCCN1C(=O)c2ccc3c4c(ccc(c24)C1=O)C(=O)N(CCCNCc1ccccc1OC)C3=O`
2.75 µM

---

- Test system: A498 renal
- Protocol Summary: NCI tumour cell line growth inhibition, 48 h
Test Readout: TGI (µM)
Answer with a number only, understood to be in µM.

Indicate its recorded TGI; the compound in question is N#CC1(C(N)=O)C(c2ccc(Cl)cc2)CC(=O)CC1c1ccc(Cl)cc1 (stereo unspecified)
27.8

Give a short answer stating reported TGI for OCc1ccc(N2CCCC2c2ccccc2)cc1Cl (stereo unspecified) .
0.306

Quote TGI reported for `O=C1c2c(c3c4ccccc4[nH]c3c3ccc4ccccc4c23)C(=O)N1CCN1CCNCC1` please.
19.6

Identify TGI associated with the compound O=C1OCC2=C1C(c1ccc(Cl)c(Cl)c1)c1cc3c(cc1N2CCO)OCCO3 (stereo unspecified)
1.84

Tell me TGI reported for `Fc1ccc(/C=N/n2c(-c3ccc(F)c(Cl)c3)nn(CNc3ccccc3C(F)(F)F)c2=S)cc1`
63.7

Given `O=S(=O)(c1ccc(Cl)cc1)C(Cl)(Cl)Cl` , respond with its TGI.
13

Return value of TGI for input `CCCCn1c(N)c(-c2nc3ccccc3o2)sc1=S` , no commentary.
98.8

Kindly indicate its recorded TGI. Item: `O=S(=O)(Nc1cc(Sc2cccc3cccnc23)c(O)c2ccccc12)c1ccc(F)cc1`
24.1

Fill in TGI for record `O=c1[nH]cc(-c2c[nH]c3ccccc23)nc1-c1c[nH]c2ccccc12`
27.9

---

- Tested on: OVCAR-4 ovarian
- Protocol Summary: NCI tumour cell line growth inhibition, 48 h; in the data active = GI50 below about 0.43 µM; inactive = the rest
Answer with one of the outcomes Y for active, N for inactive

Which result was noted for this molecule in the test: O=C1OCC2=C1C(c1ccc(Cl)c(Cl)c1)c1cc3c(cc1N2CCO)OCCO3 (configuration not stated)
Y

Returns: the outcome recorded for `O=C(/C=C\c1cccc([N+](=O)[O-])c1)/C=C/c1cccc([N+](=O)[O-])c1` in this assay.
N

State the result this test recorded for CN1C(=O)N(C)C2C1NN=c1s/c(=C\c3ccc(C(F)(F)F)cc3)c(=O)n12 (configuration not stated) .
N

Hi team, can someone confirm the assay call for `CC1=C2[C@@H](CC1)[C@]1(C)O[C@@](c3ccccc3)(C[C@H]1OC(=O)CO)[C@H]2OC(=O)/C=C/c1ccccc1` ?
N

Recorded test outcome, item `O=C(Nc1ccc(OCc2nnc(-c3ccc(Cl)cc3)o2)c(F)c1)Nc1ccc(Cl)c(C(F)(F)F)c1`
N

Hey, what did the test say about `Cc1ccc(/C=N\NC(=O)c2[nH]c3ccc(F)cc3c2-c2ccccc2)cc1` ?
Y

Query: recorded result category for `COc1ccc2cc1Oc1ccc(cc1)C[C@H]1c3c(cc4c(c3Oc3cc5c(cc3OC)CCN(C)[C@@H]5C2)OCO4)CCN1C` in this test
N

Write down the call the test reported for this molecule. Item: `O=S(=O)(c1ccc(Cl)cc1)C(Cl)(Cl)Cl`
N

Give the logged outcome of this assay for the following molecule: CC(=O)OC12C=C(C)C(C(C)C1)C1C(=O)N(CCN3CCOCC3)C(=O)C12 (configuration not stated)
N

For `CNCCCNCCCCNCCCN1C(=O)c2ccc3c4c(ccc(c24)C1=O)C(=O)N(CCCNCc1ccccc1OC)C3=O` , what call appears in the results of this test?
N

Which result was noted for this molecule in the test: CCc1ccc2c(c1)N(CCO)C1=C(C(=O)OC1)C2c1cccc(Br)c1 (configuration not stated)
N

Assay outcome for `CO/N=C(\COc1ccc2c(c1)[nH]c1ccccc12)c1ccc(F)cc1` : what was it?
N

GET /call?item= `C[C@@H]1CN(Cc2ccc(F)cc2)[C@@H](C)CN1C(=O)c1cc2c(C(=O)C(=O)N(C)C)cn(C)c2cc1Cl` returns the recorded outcome of this test.
N

Please let me know the test result on file for COc1ccc2c(c1)N(CCO)C1=C(C(=O)OC1)C2c1cccc(F)c1 (configuration not stated) .
N

Please let me know the test result on file for `CN1CCN(C(=O)c2cc(-c3ccc4ncnc(N5CCc6cc(F)c(Cl)cc65)c4c3)cnc2N)CC1` .
Y

State the result this test recorded for `COc1cc2c(cc1OCCCn1c(-c3ccccn3)nc3ccccc31)N=C[C@@H]1CCCN1C2=O` .
N

Any idea what this test logged for CO[C@H]1CC(O[C@@H]2/C(C)=C/C[C@@H]3C[C@@H](C[C@]4(C=C[C@H](C)[C@@H](C5CCCCC5)O4)O3)OC(=O)[C@@H]3C=C(C)[C@@H](O)[C@H]4OC/C(=C\C=C\[C@@H]2C)[C@]43O)O[C@@H](C)C1O[C@H]1C[C@H](OC)[C@@H](O)[C@H](C)O1 (some centres not stated) ?
N
